These measurements were taken from patent US8173131B2.

Range of Inhibition (%) of Fkn binding: recorded values
target: T1, Fkn binding to 293-CX3CR1 cells (Homo sapiens, UniProt P49238); conditions: chemokine 10 μM
T1 construct: host or cells: HEK 293 cells stably transfected with CX3CR1
T1 sequence (P49238 whole entry): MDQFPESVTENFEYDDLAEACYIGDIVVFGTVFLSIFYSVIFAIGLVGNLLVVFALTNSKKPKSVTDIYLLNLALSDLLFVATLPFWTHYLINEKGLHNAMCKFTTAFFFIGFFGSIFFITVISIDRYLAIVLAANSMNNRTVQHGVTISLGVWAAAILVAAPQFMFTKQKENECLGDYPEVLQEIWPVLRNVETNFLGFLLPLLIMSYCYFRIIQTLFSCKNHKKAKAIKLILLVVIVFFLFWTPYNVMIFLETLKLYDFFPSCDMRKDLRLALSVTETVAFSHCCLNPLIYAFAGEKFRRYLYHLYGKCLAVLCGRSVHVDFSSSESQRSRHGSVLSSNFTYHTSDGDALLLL
experimental readout: Range of Inhibition (%) of Fkn binding

1. KC: growth regulated oncogene-α, KC, chemokine (protein, UniProt P12850 25-96, looked up) Growth-regulated alpha protein: APIANELRCQCLQTMAGIHLKNIQSLKVLPSGPHCTQTEVIATLKNGREACLDPEAPLVQKIVQKMLKGVPK ... 4-6%
2. IP-10: chemokine (protein, UniProt P17515 22-98, looked up) C-X-C motif chemokine 10: IPLARTVRCNCIHIDDGPVRMRAIGKLEIIPASLSCPRVEIIATMKKNDEQRCLNPESKTIKNLMKAFSQKRSKRAP ... 0-6%
3. C10: macrophage inflammatory protein-related protein-1 (C10), chemokine (protein) GLIQEMEKEDRRYNPPIIHQGFQDTSSDCCFSYATQIPCKRFIYYFPTSGGCIKPGIIFISRRGTQVCADPSDRRVQRCLSTLKQGPRSGNKVIA ... 4-8%
4. MIP-2: chemokine (protein) AVVASELRCQCLKTLPRVDFKNIQSLSVTPPGPHCAQTEVIATLKGGQKVCLDPEAPLVQKIIQKILNKGKAN ... 0-4%
